Taken from patent US7771713B2.

Assign Response Avg % to each entry below.
Tested on: Aedes aegypti
Assay: Olfactometer attraction test, treatment port vs control port, approximately 75 female mosquitoes
Format: in vivo
Conditions: single compound, dose 500 (μL), 60 mL glass petri dish; Aedes aegypti attraction
One number for each entry, in %.

Take a look at these entries with their results.
Cc1ccc(O)cc1 = 5.0
C=O = 1.0
CCCCCCC(=O)CC = 4.0
C=CCCCCC = 5.0
CCC(=O)C(C)C = 1.0

Please give Response Avg %, item by item, for the list that follows.
1. N#Cc1ccccc1
2. CCCC(=O)CC
3. CCCCC(C)=O
4. C[S+](C)[O-] [Dimethylsulfoxide]
5. CC(=O)CC(C)C
6. CCC(=O)O

Solution:
[4.0, 1.0, 3.0, 3.0, 0.0, 3.0]
